B1: LINE1-full (parent)
chain: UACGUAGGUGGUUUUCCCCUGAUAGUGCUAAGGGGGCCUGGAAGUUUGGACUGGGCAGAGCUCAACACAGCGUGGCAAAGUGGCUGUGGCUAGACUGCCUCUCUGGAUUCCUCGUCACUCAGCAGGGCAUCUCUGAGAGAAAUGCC

variants of: B1; experiment: self-cleavage, relative activity (ratio to wild type); higher = more cleavage; in vitro, sequencing; the parent is a self-cleaving ribozyme
reported_metric: self-cleavage
Form: value (number only, do not type unit).

>>> reported_measurement("UACGUACGUGGUUUUCCCCUGAUAGUGCUAAGGGGGCCUGGAAGUUUAGACUGGGCAGAGCUCAACACAGCGUGGCAAAGUGGCUGUGGCUAGACUGCCUCUCUGGAUUCCUCGUCACUCAGCAGGGCAUCUCUGAGAGAAAUGCC [G7C G48A]")
0.92
>>> reported_measurement("UACGUAGGUGGUUCUCCCCUGAUAGUGCUAAGGGGGCCUGGAAGUUUGGACUGGGCAGAGCUCAACACAGCGUGGCAAAGUGGCUGUGGCUAGACUGCCUCUCUGGAUUCCUCGUCACUCAGCAGGGCAUCUCUGAGAUAAAUGCC [U14C G139U]")
1.63
>>> reported_measurement("UACGUAGGUGGUUUUCCCCUGAUAGUGCUAAGGGGGCCUGGAAGUUUGGACUGGGCAGUGCUCAACACAGCGUGGCAAAGUGGCUGUGGCUAGACUGCCUCUCUGGAUUCCUCGUCACUCAGCAGGGCAUCUCGGAGAGAAAUGCC [A59U U134G]")
1.26

Entry under test: UACGUAGGUGGUUUUCCCCUGAUAGUGCUAAGGGGGCCUGGAAGUUUGGACUGGGCAGAGCACAACACAGCGUGGCAAAGUGGCUGUGGCUAGACUGCCCCUCUGGAUUCCUCGUCACUCAGCAGGGCAUCUCUGAGAGAAAUGCC [U62A U100C] . Its self-cleavage was 0.23

Data point: UACGUAGGUGGUUUUCCCCUGAUAGUGCUAAAGGGGCCUGGAAGUUUGGACUGGGCAGAGCUCAACACAGCGUGGCAAAGUAGCUGUGGCUAGACUGCCUCUCUGGAUUCCUCGUCACUCAGCAGGGCAUCUCUGAGAGAAAUGCC [G32A G82A] ; self-cleavage = 2.01

Lab book: self-cleavage of UACGCAGGUGGUUUUCCCCUGAUAGUGCUAAGGGGGCCUGGAAGUUUGGACGGGGCAGAGCUCAACACAGCGUGGCAAAGUGGCUGUGGCUAGACUGCCUCUCUGGAUUCCUCGUCACUCAGCAGGGCAUCUCUGAGAGAAAUGCC [U5C U52G] noted as 1.23

self-cleavage for UACGUAGGAGGUAUUCCCCUGAUAGUGCUAAGGGGGCCUGGAAGUUUGGACUGGGCAGAGCUCAACACAGCGUGGCAAAGUGGCUGUGGCUAGACUGCCUCUCUGGAUUCCUCGUCACUCAGCAGGGCAUCUCUGAGAGAAAUGCC [U9A U13A] is 1.12

Record UACGUAGGUGGUUUUCCCCUGAUAGUGCUAAGGGGGCCUGGAAGUGUGGGCUGGGCAGAGCUCAACACAGCGUGGCAAAGUGGCUGUGGCUAGACUGCCUCUCUGGAUUCCUCGUCACUCAGCAGGGCAUCUCUGAGAGAAAUGCC [U46G A50G] , field self-cleavage: 0.92

response.value for UACGUAGGUGGUUUUCCCCUGACGGUGCUAAGGGGGCCUGGAAGUUUGGACUGGGCAGAGCUCAACACAGCGUGGCAAAGUGGCUGUGGCUAGACUGCCUCUCUGGAUUCCUCGUCACUCAGCAGGGCAUCUCUGAGAGAAAUGCC [U23C A24G] (field: self-cleavage) = 1.48

For UACGUAGGUGGCUUUCCCCUGACAGUGCUAAGGGGGCCUGGAAGUUUGGACUGGGCAGAGCUCAACACAGCGUGGCAAAGUGGCUGUGGCUAGACUGCCUCUCUGGAUUCCUCGUCACUCAGCAGGGCAUCUCUGAGAGAAAUGCC [U12C U23C] the variant record lists self-cleavage as 1.34

self-cleavage reported for this variant UACGUAGGUGGUUUUCCCCUGAUAGUGCUAAGGGGGCCUGGAAGCUUGGACUGGGCAGAGCUCAACACAGCGUGGUAAAGUGGCUGUGGCUAGACUGCCUCUCUGGAUUCCUCGUCACUCAGCAGGGCAUCUCUGAGAGAAAUGCC [U45C C76U] : 1.89

The variant identified as UACGUAGGUGGUUUUCCCCUGAUAGUGCUAAGGGGGCCUGGAAGUUUGGACUGGGCAGAGCUCAACACAGCGUGGCAAGGUGGCUGUGGCUAGACUGCCUCUCUGGAUUCCUCGUCACUCAGCUGGGCAUCUCUGAGAGAAAUGCC [A79G A124U] registered its self-cleavage at 1.19

Given item UACGUAGGUGGUUUUCCCCUGGUAGUGCUAAGGGGGCCUGGAAGUUUGGACUGGGCAGAGCUCAACACAGCGUGGCAAAGUGGCUGUGGCUAGACUGCCUCUCUGGAUACCUCGUCACUCAGCAGGGCAUCUCUGAGAGAAAUGCC [A22G U109A] , the value recorded as its self-cleavage is 1.13

The variant identified as UAUGUAGGUGGCUUUCCCCUGAUAGUGCUAAGGGGGCCUGGAAGUUUGGACUGGGCAGAGCUCAACACAGCGUGGCAAAGUGGCUGUGGCUAGACUGCCUCUCUGGAUUCCUCGUCACUCAGCAGGGCAUCUCUGAGAGAAAUGCC [C3U U12C] registered its self-cleavage at 0.57

self-cleavage reading for UACGUAGGUGGUUUUCCCCUGAUAGCGCUAAGGGGGCCUGGAAGUUUGGACCGGGCAGAGCUCAACACAGCGUGGCAAAGUGGCUGUGGCUAGACUGCCUCUCUGGAUUCCUCGUCACUCAGCAGGGCAUCUCUGAGAGAAAUGCC [U26C U52C] : 0.98

The variant listed as UACGUAGGUGGUUUUCCCCUGGUAGUGCUAAGGGGGCCUGGAAGUUUGGACUGGGCAGGGCUCAACACAGCGUGGCAAAGUGGCUGUGGCUAGACUGCCUCUCUGGAUUCCUCGUCACUCAGCAGGGCAUCUCUGAGAGAAAUGCC [A22G A59G] has a reported self-cleavage of 0.16

Entry UACGUAUGUGGUUUUCCCCUGAUAGUGCUAAGGGGGCCUGGAAGUUAGGACUGGGCAGAGCUCAACACAGCGUGGCAAAGUGGCUGUGGCUAGACUGCCUCUCUGGAUUCCUCGUCACUCAGCAGGGCAUCUCUGAGAGAAAUGCC [G7U U47A] , self-cleavage reported as 1.2

Lab note: measured self-cleavage of UACGUAGGUGGUUUUCCCCUGAUAGUGCUAAGGGGGCCUGGAAGUUUGGACUGGGCAGAGCUCAACACAGCGUGGCAAAGUGGCUUUGGCUAGACUGCCUCUCUGGAUUCCUCGUCACUCAGCAGGGCGUCUCUGAGAGAAAUGCC [G86U A129G] was 0.09

The reported self-cleavage of the variant UACGUAGGUGGUUUUCCCCUGAUAGUGCUAAGGGGGCCUGGAAGUUUGGACUGGGCAGAGGUCAACACAGCGUGGCAAAGUGGCCGUGGCUAGACUGCCUCUCUGGAUUCCUCGUCACUCAGCAGGGCAUCUCUGAGAGAAAUGCC [C61G U85C] was 0.15

# variant UACGUAGGUGGUUUUCCCCUGAUAGUGCUAAGGGGGCCUGGAAGUUUGGACUGGGCAGAGCUCAACACAGCGUGUCAAAGUGGCUGUGGCUAGACUGCCUCUCUGGAUCCCUCGUCACUCAGCAGGGCAUCUCUGAGAGAAAUGCC [G75U U109C] ; its self-cleavage = 0.7

Entry UACGUAGGUGGUUUUCCCCUGAUAGUGCUAAGGGGGCCUGGAAGCUUGGAUUGGGCAGAGCUCAACACAGCGUGGCAAAGUGGCUGUGGCUAGACUGCCUCUCUGGAUUCCUCGUCACUCAGCAGGGCAUCUCUGAGAGAAAUGCC [U45C C51U] ; self-cleavage = 1.58
